Values of pKi reported for Somatostatin receptor type 3 (Homo sapiens) appear below.
pKi: −log10 of the molar value.
Measured Attribute: pKi

a = CC(C)[C@H]1NC(=O)[C@H](CCCCN)NC(=O)[C@@H](Cc2c[nH]c3ccccc23)NC(=O)[C@H](Cc2c[nH]cn2)NC(=O)C(NC(=O)[C@@H](N)Cc2ccccc2F)CSSCC(C(=O)N[C@@H](Cc2ccccc2F)C(N)=O)NC1=O (stereo in doubt)
b = CC(C)[C@@H]1NC(=O)[C@H](CCCCN)NC(=O)[C@@H](Cc2c[nH]c3ccccc23)NC(=O)[C@@H](Cc2ccccn2)NC(=O)[C@H](NC(=O)[C@@H](N)Cc2c(F)c(F)c(F)c(F)c2F)CSSC[C@@H](C(=O)N[C@@H](Cc2c(F)c(F)c(F)c(F)c2F)C(N)=O)NC1=O
c = CC(C)[C@@H]1NC(=O)[C@H](CCCCN)NC(=O)[C@@H](Cc2c[nH]c3ccccc23)NC(=O)[C@H](Cc2cccnc2)NC(=O)[C@H](NC(=O)[C@@H](N)Cc2ccc3ccccc3c2)CSSC[C@@H](C(=O)N[C@H](C(N)=O)C(c2ccccc2)c2ccccc2)NC1=O
d = CC(C)[C@@H]1NC(=O)[C@H](CCCCN)NC(=O)[C@@H](Cc2c[nH]c3ccccc23)NC(=O)[C@H](Cc2cccnc2)NC(=O)[C@H](NC(=O)[C@H](N)Cc2ccc(F)cc2)CSSC[C@@H](C(=O)N[C@H](Cc2ccc(F)cc2)C(N)=O)NC1=O
Which order do these items fall in when sorted by pKi from largest to smallest? Use the labels to give the requested order.
b, a, d, c
(b: 7.03, a: 6.42, d: 6.08, c: 5.80)

----------
Each entry below carries its measured pKi, system: Somatostatin receptor type 4 (Homo sapiens).
Sequence (P31391 whole entry): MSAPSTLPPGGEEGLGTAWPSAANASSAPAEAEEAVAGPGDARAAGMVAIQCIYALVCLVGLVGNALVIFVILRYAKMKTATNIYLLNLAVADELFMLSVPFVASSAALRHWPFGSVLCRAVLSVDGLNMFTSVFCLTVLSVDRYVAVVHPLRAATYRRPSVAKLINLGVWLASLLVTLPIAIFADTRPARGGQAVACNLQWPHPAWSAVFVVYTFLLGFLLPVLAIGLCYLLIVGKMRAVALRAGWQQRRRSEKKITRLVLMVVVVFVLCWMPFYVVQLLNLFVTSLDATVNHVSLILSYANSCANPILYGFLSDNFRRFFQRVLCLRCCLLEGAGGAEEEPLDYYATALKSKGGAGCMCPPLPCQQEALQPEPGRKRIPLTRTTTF
Bridge positions count the residues as written; N and C are the ends. Square brackets hold non-standard residues; d marks the D form. Peptide text beside a SMILES is read from it. Phe(4-Cl) = N[C@@H](Cc1ccc(Cl)cc1)C(=O)O; dPhe(4-F) = N[C@H](Cc1ccc(F)cc1)C(=O)O; 2Nal = N[C@@H](Cc1ccc2ccccc2c1)C(=O)O; 3Pal = N[C@@H](Cc1cccnc1)C(=O)O; Tle = CC(C)(C)[C@H](N)C(=O)O
Lab note: report pKi as minus log10 of the concentration in molar units, number only.

// worked examples, pKi included
compound=CC(C)(C)[C@@H]1NC(=O)[C@H](CCCCN)NC(=O)[C@@H](Cc2c[nH]c3ccccc23)NC(=O)[C@H](Cc2cccnc2)NC(=O)[C@H](NC(=O)[C@@H](N)Cc2ccc(Cl)cc2)CSSC[C@@H](C(=O)N[C@@H](Cc2ccc(Cl)cc2)C(N)=O)NC1=O recorded_number=5.79
compound="CC(C)(C)[C@@H]1NC(=O)[C@H](CCCCN)NC(=O)[C@@H](Cc2c[nH]c3ccccc23)NC(=O)[C@H](Cc2cccnc2)NC(=O)[C@H](NC(=O)[C@H](N)Cc2ccc(F)cc2)CSSC[C@@H](C(=O)N[C@@H](Cc2ccc3ccccc3c2)C(N)=O)NC1=O (H-[dPhe(4-F)][dC][3Pal][dW]K[Tle]C[2Nal]-NH2; disulfide 2-7)" recorded_number=6.05

# evaluate next
Give Somatostatin receptor type 4 (Homo sapiens) pKi for CC(C)(C)[C@@H]1NC(=O)[C@H](CCCCN)NC(=O)[C@@H](Cc2c[nH]c3ccccc23)NC(=O)[C@H](Cc2cccnc2)NC(=O)[C@H](NC(=O)[C@@H](N)Cc2ccc(Cl)cc2)CSSC[C@@H](C(=O)N[C@@H](Cc2ccc3ccccc3c2)C(N)=O)NC1=O (H-[Phe(4-Cl)][dC][3Pal][dW]K[Tle]C[2Nal]-NH2; disulfide 2-7)
6.05
